Tested on: K562
Assay: NCI tumour cell line growth inhibition, 48 h
Active and inactive are the calls of the source. Rule as the data show it: active = GI50 up to about 1.1 µM and inactive = higher.
Quick reference for GI50 among some molecules

- COc1ccc2nc3cc(Cl)ccc3c(Nc3ccc(O)c(CN4CCN(C)CC4)c3)c2c1: 1.59 µM (inactive)

Query :: # query: GI50 of entry CN1N=C(N)c2cn(C3OC(COP(=O)(O)O)C(O)C3O)c3ncnc1c23 (configuration not stated)
Result :: 385 µM (inactive)

Query :: # query: GI50 of entry N#Cc1c(N)c(C(=O)O)nn(-c2cccc(C(F)(F)F)c2)c1=O
Result :: 64.7 µM (inactive)

Query :: # query: GI50 of entry CC(/C=C/NNC1=NN=C(c2ccccc2)C(c2ccccc2)N1)Sc1ccccc1N (configuration not stated)
Result :: 6.24 µM (inactive)

Query :: # query: GI50 of entry CN(C)c1cccc(NC2=NCCO2)c1
Result :: 30.8 µM (inactive)

Query :: # query: GI50 of entry NC1=NS(=O)(=O)N=C(N)C1=Cc1ccc([N+](=O)[O-])o1
Result :: 6.01 µM (inactive)
